experiment: in vitro; assay type: in vitro ADME; conditions: liver microsomes; mouse liver microsome 1 mg protein/mL, 2 mM NADPH, pH 7.4, 37° C.; read-out: Stability against mouse liver microsome T1/2
What half-life was measured for each of the following?

Example entries and their recorded answers appear below.
| molecule | result |
| --- | --- |
| CCC(=O)NCCONCc1cc(C(=O)NOCCO)c(Nc2ccc(I)cc2F)c(F)c1F [Compound C-34] | 3.97 h |
| C#Cc1ccc(Nc2c(C(=O)NOCCO)cc(CNOCC(C)(C)O)c(F)c2F)c(F)c1 [Compound C-29] | > 6 h |
| CONCc1cc(C(=O)NOCCO)c(Nc2ccc(I)cc2F)c(F)c1F [Compound C-24] | 0.983 h |
| CC1(C)CON(Cc2cc(C(=O)NOCCO)c(Nc3ccc(I)cc3F)c(F)c2F)C1=O [Compound G-3] | > 6 h |
| C#Cc1ccc(Nc2c(C(=O)NOCCO)cc(CNOCCO)c(F)c2F)c(F)c1 [Compound C-2] | > 6 h |
| O=C(NOCCO)c1cc(COCCO)c(F)c(F)c1Nc1ccc(I)cc1F [Compound B-1] | > 6 h |
| O=C(NOCCO)c1cc(CNOCCO)c(F)c(F)c1Nc1ccc(I)cc1F [Compound C-1] | 2.15 h |
| O=C(NOCCO)c1cc(CN2OCCCC2=O)c(F)c(F)c1Nc1ccc(I)cc1F [Compound G-1] | > 6 h |

Give one value of half-life per listed molecule.
1. CON(C=O)Cc1cc(C(=O)NOCCO)c(Nc2ccc(I)cc2F)c(F)c1F [Compound F-1]
2. C#Cc1ccc(Nc2c(C(=O)NOCCO)cc(COCCO)c(F)c2F)c(F)c1 [Compound B-2]
3. C#Cc1ccc(Nc2c(C(=O)NOCCO)cc(CN3OCCC3=O)c(F)c2F)c(F)c1 [Compound G-5]
4. O=C(NOC[C@H](O)CO)c1ccc(F)c(F)c1Nc1ccc(I)cc1F [Q, reference compound]
5. C#Cc1ccc(Nc2c(C(=O)NOCCO)cc(CN(OC)C(C)=O)c(F)c2F)c(F)c1 [Compound F-7]

Result ::
1: 2.82 h; 2: > 6 h; 3: > 6 h; 4: 0.483 h; 5: 0.683 h

Give one value of half-life per listed molecule.
1. CC(C)C(=O)NCCONCc1cc(C(=O)NOCCO)c(Nc2ccc(I)cc2F)c(F)c1F [Compound C-35]
2. O=C(NOCC1CC1)c1ccc(F)c(F)c1Nc1ccc(I)cc1Cl [R, reference compound]
3. CS(=O)(=O)CCOCc1cc(C(=O)NOCCO)c(Nc2ccc(I)cc2F)c(F)c1F [Compound B-12]
4. O=C(NOCCO)c1cc(CNOCCCO)c(F)c(F)c1Nc1ccc(I)cc1F [Compound C-10]

Result ::
["> 6 h", "0.183 h", "> 6 h", "1.9 h"]

* * *

test: physchem; assay type: physicochemical; settings: aqueous buffer, thermodynamic from solid; 50 mM phosphate buffer (pH 6.5), room temperature (20° C.); read-out: Water solubility
metric: solubility at 2 h (µM)
Numbers only, in µM.

Example entries and their recorded answers appear below.
| compound | measurementUnits | solubility at 2 h |
| --- | --- | --- |
| C#Cc1ccc(Nc2c(C(=O)NOCCO)cc(CN(OC)C(C)=O)c(F)c2F)c(F)c1 | µM | 550 |
| C#Cc1ccc(Nc2c(C(=O)NOCCO)cc(CNOCCO)c(F)c2F)c(F)c1 | µM | 2910 |
| O=C(NOC[C@H](O)CO)c1ccc(F)c(F)c1Nc1ccc(I)cc1F [Q, reference compound] | µM | 645 |

Give one value of solubility at 2 h per listed compound.
1. CS(=O)(=O)CCOCc1cc(C(=O)NOCCO)c(Nc2ccc(I)cc2F)c(F)c1F
2. O=C(NOCCO)c1cc(CNOCCCO)c(F)c(F)c1Nc1ccc(I)cc1F

Result ::
1. 159
2. 557

Give one value of solubility at 2 h per listed compound.
1. CONCc1cc(C(=O)NOCCO)c(Nc2ccc(I)cc2F)c(F)c1F
2. C#Cc1ccc(Nc2c(C(=O)NOCCO)cc(COCCO)c(F)c2F)c(F)c1
3. C#Cc1ccc(Nc2c(C(=O)NOCCO)cc(CN3OCCCC3=O)c(F)c2F)c(F)c1

Result ::
455
811
344
